# IC50 per entry
System: 633275-114-R-J1-PDC complex spheroids, viability;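 further: spheroids exposed to the agents for seven days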
Experiment: Anticancer human tumor 633275-114-R-J1-PDC patient-derived endometrial adenocarcinoma cell line growth inhibition [GQUAD]
Settings: curve of first compound; second compound 3.16 µM
OBSERVABLE: IC50

O=c1[nH]cc(F)c(=O)[nH]1 + Cc1[nH]c2ccc(F)cc2c1-c1nc2c3cccnc3c3ncccc3c2[nH]1 : > 10000 nM
COc1cc(C2c3cc4c(cc3C(OC3OC5COC(C)OC5C(O)C3O)C3COC(=O)C23)OCO4)cc(OC)c1O (stereo not drawn) + CN(C)c1ccc(Nc2c3ccc(NC(=O)CCN4CCCC4)cc3nc3cc(NC(=O)CCN4CCCC4)ccc23)cc1 : 171 nM
O=c1[nH]cc(F)c(=O)[nH]1 + CN(C)c1ccc(Nc2c3ccc(NC(=O)CCN4CCCC4)cc3nc3cc(NC(=O)CCN4CCCC4)ccc23)cc1 : > 10000 nM
O=c1[nH]cc(F)c(=O)[nH]1 + Cc1cnc(CNC(=O)c2c(=O)c3ccc(N4CCCN(C)CC4)nc3n3c2sc2ccccc23)cn1 : < 31.6 nM
CCc1c2c(nc3ccc(O)cc13)-c1cc3c(c(=O)n1C2)COC(=O)[C@]3(O)CC + CN(C)c1ccc(Nc2c3ccc(NC(=O)CCN4CCCC4)cc3nc3cc(NC(=O)CCN4CCCC4)ccc23)cc1 : 2.01 nM
Nc1ccn(C2OC(CO)C(O)C2(F)F)c(=O)n1 (stereo not drawn) + Cc1cnc(CNC(=O)c2c(=O)c3ccc(N4CCCN(C)CC4)nc3n3c2sc2ccccc23)cn1 : < 31.6 nM
COc1ccc([C@@H](O)c2cc(-c3ncnc4cc(N5CCOCC5)ccc34)c(F)cc2Cl)nn1 + Cc1cnc(CNC(=O)c2c(=O)c3ccc(N4CCCN(C)CC4)nc3n3c2sc2ccccc23)cn1 : < 31.6 nM
C=CC(=O)N1CCN(c2nc(=O)n(-c3c(C)ccnc3C(C)C)c3nc(-c4c(O)cccc4F)c(F)cc23)C(C)C1 (stereo not drawn) + Cc1[nH]c2ccc(F)cc2c1-c1nc2c3cccnc3c3ncccc3c2[nH]1 : > 10000 nM
COc1cc(C2c3cc4c(cc3C(OC3OC5COC(C)OC5C(O)C3O)C3COC(=O)C23)OCO4)cc(OC)c1O (stereo not drawn) + Cc1cnc(CNC(=O)c2c(=O)c3ccc(N4CCCN(C)CC4)nc3n3c2sc2ccccc23)cn1 : < 31.6 nM
Cc1[nH]c2ccccc2c1CCNCc1ccc(/C=C/C(=O)NO)cc1 + Cc1cnc(CNC(=O)c2c(=O)c3ccc(N4CCCN(C)CC4)nc3n3c2sc2ccccc23)cn1 : < 0.999 nM
COc1ccc([C@@H](O)c2cc(-c3ncnc4cc(N5CCOCC5)ccc34)c(F)cc2Cl)nn1 + Cc1[nH]c2ccc(F)cc2c1-c1nc2c3cccnc3c3ncccc3c2[nH]1 : 1880 nM
CC(C)n1c(=O)n(C)c2cnc3cc(F)c(-c4ccc(OCCCN5CCCCC5)nc4)cc3c21 + Cc1[nH]c2ccc(F)cc2c1-c1nc2c3cccnc3c3ncccc3c2[nH]1 : > 10000 nM
Cc1[nH]c2ccccc2c1CCNCc1ccc(/C=C/C(=O)NO)cc1 + Cc1[nH]c2ccc(F)cc2c1-c1nc2c3cccnc3c3ncccc3c2[nH]1 : 21 nM

Values were extracted from PubChem BioAssay AID2060505.
